Test system: A2780 cells
Experiment: Cell proliferation inhibitory effect on human cancer cell lines: A2780
Assay type: cell-based
Conditions: 72 h, A2780, Ovarian Cancer, RPMI-1640 + 10% FBS, 2000 cell/well
measurement.label: pIC50
Quick note: pIC50 means taking -log10 of the concentration in moles per liter.

Request: State measured pIC50 of the compound [2H]C([2H])([2H])C1(O)CCOc2c(S(=O)(=O)N[C@H](c3n[nH]c(=O)o3)[C@H](C)c3c(F)ccc(C)c3C)ccc(Cl)c21 (single isomer, unassigned) [Example 200A] with A2780 cells.
Response: 6.89

###

Target: human RNR (histidine tagged human M1 and human M2 proteins) (Homo sapiens, UniProt P23921)
Sequence (P23921 1-792): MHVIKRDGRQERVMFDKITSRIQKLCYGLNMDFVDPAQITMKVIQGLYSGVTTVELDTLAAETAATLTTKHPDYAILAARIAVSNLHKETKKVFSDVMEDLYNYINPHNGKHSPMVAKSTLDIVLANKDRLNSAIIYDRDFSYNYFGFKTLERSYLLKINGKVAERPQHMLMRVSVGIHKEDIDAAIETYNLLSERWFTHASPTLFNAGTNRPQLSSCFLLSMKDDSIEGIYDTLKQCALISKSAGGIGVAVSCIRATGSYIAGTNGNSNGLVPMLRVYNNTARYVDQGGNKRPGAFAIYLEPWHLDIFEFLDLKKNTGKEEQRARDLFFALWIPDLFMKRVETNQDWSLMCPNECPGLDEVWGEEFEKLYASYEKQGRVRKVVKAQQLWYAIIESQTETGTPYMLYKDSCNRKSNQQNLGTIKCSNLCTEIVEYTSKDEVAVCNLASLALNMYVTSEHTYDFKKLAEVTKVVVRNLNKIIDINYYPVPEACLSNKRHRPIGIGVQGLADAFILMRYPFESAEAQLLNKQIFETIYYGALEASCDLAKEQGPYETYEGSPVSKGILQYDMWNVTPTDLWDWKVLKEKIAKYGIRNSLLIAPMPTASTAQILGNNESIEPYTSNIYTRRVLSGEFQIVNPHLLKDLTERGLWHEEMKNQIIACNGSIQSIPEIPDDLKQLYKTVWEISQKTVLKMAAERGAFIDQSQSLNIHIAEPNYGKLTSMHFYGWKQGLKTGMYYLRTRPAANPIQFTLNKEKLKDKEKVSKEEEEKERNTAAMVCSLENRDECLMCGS
measurement.label: pIC50
Scale note: pIC50 = -log10(concentration in M).

compound	measurement.label	meas.value
Cc1ccc(F)c([C@@H](C)[C@H](NS(=O)(=O)c2ccc3c(c2)C(C)(O)CCO3)c2n[nH]c(=O)o2)c1C (some centres unmarked) [Example 195]	pIC50	6.74
COc1cc(N)ccc1S(=O)(=O)N[C@H](c1n[nH]c(=O)o1)[C@H](C)c1cccc2c1CCC2 [Example 270]	pIC50	6.14
[2H]C([2H])([2H])C1(O)CCOc2c(S(=O)(=O)N[C@H](c3n[nH]c(=O)o3)[C@H](C)c3c(F)ccc(C)c3C)ccc(Cl)c21 (single isomer, unassigned) [Example 200A]	pIC50	7.52
Cc1ccc(F)c([C@@H](C)[C@H](NS(=O)(=O)c2ccc(Cl)cc2C(N)=O)c2n[nH]c(=O)o2)c1 [Example 21]	pIC50	6.62

--- query ---
Request: Please indicate pIC50 recorded for Cc1ccc(F)c([C@@H](C)[C@H](NS(=O)(=O)c2cccc3c2OC(C)(C)CC3O)c2n[nH]c(=O)o2)c1C (single isomer, unassigned) [Example 237A]
Response: 6.54

Value source: patent US20200405697A1
